These measurements were taken from patent US20200261595A1.

measurement-target: insulin receptor of isolated rat adipocytes (rat, UniProt P15127 27-1383)
Sequence (P15127 27-1383): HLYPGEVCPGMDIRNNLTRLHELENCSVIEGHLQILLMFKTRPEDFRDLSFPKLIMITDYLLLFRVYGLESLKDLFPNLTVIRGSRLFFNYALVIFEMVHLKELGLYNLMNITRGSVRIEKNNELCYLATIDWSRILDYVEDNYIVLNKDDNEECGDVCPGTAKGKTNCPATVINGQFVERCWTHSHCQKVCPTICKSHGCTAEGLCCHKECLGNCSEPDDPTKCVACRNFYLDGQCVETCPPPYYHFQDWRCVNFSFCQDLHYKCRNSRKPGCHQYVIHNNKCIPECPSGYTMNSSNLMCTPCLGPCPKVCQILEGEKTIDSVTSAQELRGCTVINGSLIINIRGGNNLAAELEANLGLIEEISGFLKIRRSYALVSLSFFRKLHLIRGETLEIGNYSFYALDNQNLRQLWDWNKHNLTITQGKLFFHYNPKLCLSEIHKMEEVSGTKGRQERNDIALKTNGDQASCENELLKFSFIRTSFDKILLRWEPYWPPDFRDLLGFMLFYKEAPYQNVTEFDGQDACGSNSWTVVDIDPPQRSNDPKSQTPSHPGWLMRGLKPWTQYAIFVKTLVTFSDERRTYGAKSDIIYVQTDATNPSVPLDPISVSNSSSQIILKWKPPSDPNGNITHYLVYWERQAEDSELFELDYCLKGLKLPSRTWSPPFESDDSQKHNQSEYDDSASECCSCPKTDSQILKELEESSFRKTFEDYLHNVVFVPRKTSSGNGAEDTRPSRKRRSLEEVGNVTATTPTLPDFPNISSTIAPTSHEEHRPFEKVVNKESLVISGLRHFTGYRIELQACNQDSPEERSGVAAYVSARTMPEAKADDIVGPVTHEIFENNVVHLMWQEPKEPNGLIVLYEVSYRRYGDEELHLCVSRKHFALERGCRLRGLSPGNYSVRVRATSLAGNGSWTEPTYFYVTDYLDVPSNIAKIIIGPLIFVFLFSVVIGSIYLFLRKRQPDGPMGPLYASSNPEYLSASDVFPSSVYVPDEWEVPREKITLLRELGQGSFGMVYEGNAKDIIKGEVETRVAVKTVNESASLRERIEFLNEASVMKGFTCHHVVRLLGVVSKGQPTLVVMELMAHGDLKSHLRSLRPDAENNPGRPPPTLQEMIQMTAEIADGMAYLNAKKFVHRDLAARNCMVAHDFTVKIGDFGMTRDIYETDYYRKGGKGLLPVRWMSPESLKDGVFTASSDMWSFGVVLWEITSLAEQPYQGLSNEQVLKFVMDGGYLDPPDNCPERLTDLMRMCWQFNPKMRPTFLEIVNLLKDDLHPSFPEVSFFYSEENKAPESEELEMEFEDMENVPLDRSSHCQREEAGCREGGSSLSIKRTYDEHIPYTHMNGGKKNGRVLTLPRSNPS
test-method-notes: cell-based or functional assay
property-label: Lipogenesis in rat adipocytes [Potency (%)] Mean Value

Problem: Return reported Lipogenesis in rat adipocytes [Potency (%)] Mean Value. Input binder: A14E, A21G, A22(GQAPGQEP)6, A70K^, A71P, B25H, B29R, desB30 human insulin/(227A, 234A, 235K hIgG4-Fc(228-447)) … (other, Cys229 (EU numbering) sulphur bound to an acetyl arm of the linker; A70K N(eps) acylated by the trivalent linker 4-[bis[2-[(2-acetyl)amino]ethyl]amino]-4-oxo-butanoyl, also called Ex 5.9) chain 1: GIVEQCCTSICSLEQLENYCGGQAPGQEPGQAPGQEPGQAPGQEPGQAPGQEPGQAPGQEPGQAPGQEPKP chain 2: FVNQHLCGSHLVEALYLVCGERGFHYTPR chain 3: ASCPAPEAKGGPSVFLFPPKPKDTLMISRTPEVTCVVVDVSQEDPEVQFNWYVDGVEVHNAKTKPREEQFNSTYRVVSVLTVLHQDWLNGKEYKCKVSNKGLPSSIEKTISKAKGQPREPQVYTLPPSQEEMTKNQVSLTCLVKGFYPSDIAVEWESNGQPENNYKTTPPVLDSDGSFFLYSRLTVDKSRWQEGNVFSCSVMHEALHNHYTQKSLSLSLGK
Result: 3.02 % of human insulin
